- tested-target: human SSTR4 (Homo sapiens)
- Construct: expressed in transfected cells; host or cells: CHO-K1 cells and CCL39 cells
- Sequence (P31391 whole entry): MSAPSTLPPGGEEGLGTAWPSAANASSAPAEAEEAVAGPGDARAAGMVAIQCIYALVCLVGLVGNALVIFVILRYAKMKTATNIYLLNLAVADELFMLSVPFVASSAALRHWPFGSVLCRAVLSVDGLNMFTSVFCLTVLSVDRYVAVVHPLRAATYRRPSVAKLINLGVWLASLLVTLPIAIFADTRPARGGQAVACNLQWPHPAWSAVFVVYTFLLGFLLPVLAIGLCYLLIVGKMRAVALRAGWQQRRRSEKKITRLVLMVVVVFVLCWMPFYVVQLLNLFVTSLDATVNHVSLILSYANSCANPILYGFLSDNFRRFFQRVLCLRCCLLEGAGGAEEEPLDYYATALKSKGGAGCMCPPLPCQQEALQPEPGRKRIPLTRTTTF
- assay-text: Displacement of 125I-[Leu8,D-Trp22,Tyr25]-SRIF-28 from cloned SSTR4 (receptor autoradiography)
- Format: binding
- settings: inhibition of radioligand binding of 125I-[Leu8,D-Trp22,Tyr24]SRIF-28, cloned receptor; table; read-out: IC50 (nM) mSSTR4
Where a SMILES comes first, the peptide text is derived from it. Bridges are numbered along the chain shown (N, C = ends). [ ]: non-standard residue; d: D form. NMePhe(4-CH2NHiPr) = CN[C@@H](Cc1ccc(CNC(C)C)cc1)C(=O)O
experimental-endpoint: IC50 (nM)

# compound, reported
records = [
    ("CC(C)NCc1ccc(C[C@H]2C(=O)N[C@@H]([C@@H](C)O)C(=O)N[C@@H](Cc3ccccc3)C(=O)N[C@@H]([C@@H](C)O)C(=O)N[C@@H](CO)C(=O)N[C@H](C(=O)O)CSSC[C@H](NC(=O)[C@@H](N)Cc3ccc(O)cc3)C(=O)N[C@@H](CCCCN)C(=O)N[C@@H](Cc3ccccc3)C(=O)N[C@@H](Cc3ccccc3)C(=O)N[C@H](Cc3c[nH]c4ccccc34)C(=O)N2C)cc1 [Peptide No. 27] (H-YCKFF[dW][NMePhe(4-CH2NHiPr)]TFTSC-OH; disulfide 2-12)", 300),
]
